These data points were gathered from patent US20120252896A1.

System: Th17 cells (CD4+ T cells under Th17 differentiating conditions; IL-17 production)
test.details: IL-17 production by differentiating Th17 cells in vitro (ELISA)
Assay type: cell-based, mouse (C57BL/6)
measurement.parameters: Mus musculus, Th17 differentiating conditions, read-out: IC50, IL-17 production
# pIC50 values compiled below
Friendly reminder that pIC50 comes from taking -log10 of the concentration in mol/L.

molecule | assayed.target | pIC50
Nc1c(O)cccc1C(=O)O [3′-Hydroxyanthranilic acid, 3′-hydroxyanthranilic acid] | Th17 cells (CD4+ T cells under Th17 differentiating conditions; IL-17 production) | 4.56
Nc1ccccc1C(=O)C[C@H](N)C(=O)O | Th17 cells (CD4+ T cells under Th17 differentiating conditions; IL-17 production) | 4.00

Data request: I'm curious: which pIC50 was measured for Nc1c(O)cccc1C(=O)CC(N)C(=O)O (racemic) [3′-Hydroxy-DL-kynurenine, 3′-hydroxy-DL-kynurenine] tested on Th17 cells (CD4+ T cells under Th17 differentiating conditions; IL-17 production)?
Data returned: 4.17
